# System: RXF 393 renal
# TEST_SUMMARY: NCI tumour cell line growth inhibition, 48 h
MEASUREMENT_NAME: TGI

COMPOUND | REPORTED_RESULT
COc1ccc(-n2c(C)nc3ccc(NC4OCC(OC(C)=O)C(OC(C)=O)C4OC(C)=O)cc3c2=O)cc1 (centres undefined) | > 100 µM
CC(C)(C(=O)N(C(=O)N1CCN(c2ccccc2)CC1)S(=O)(=O)c1ccccc1)c1ccc(Cl)cc1 | > 100 µM
CCCOC(=O)C1C(c2ccc(OC)cc2)NC(c2ccc(OC)cc2)C(C(=O)OCCC)S1(=O)=O (centres undefined) | > 100 µM
COc1cc(/C=C2\CC3C4CC=C5C[C@@H](N6CCCC6)CC[C@]5(C)C4CC[C@]3(C)[C@H]2OC(C)=O)ccc1OCCCn1ccnc1 (some centres undefined) | 2.08 µM

====

// TGI lookup, one value per entry
# Tested on: OVCAR-3 ovarian
# TEST_SUMMARY: NCI tumour cell line growth inhibition, 48 h

COMPOUND | TGI
CC(C)CC1C(=O)OC(C)(C)OC1=O | > 100 µM
COc1cc(/C=C2\CC3C4CC=C5C[C@@H](N6CCCC6)CC[C@]5(C)C4CC[C@]3(C)[C@H]2OC(C)=O)ccc1OCCCn1ccnc1 (stereo not given in full) | 0.777 µM
COc1cc(C(C)c2cc3c(cc2OCCCCCOc2cc4c(cc2C(C)c2cc(OC)c(OC)c(OC)c2)OCO4)OCO3)cc(OC)c1OC (stereo not given) | > 100 µM
O=C1c2ccccc2C(=O)N1CCN(CCN1C(=O)c2ccccc2C1=O)Cc1ccccc1 | > 100 µM
CSc1nc2c(ncn2C2OC(CO)C(O)C(O)C2O)c(=O)n1C (stereo not given) | > 100 µM
O=C(Cn1c(C(=O)/C=C/c2ccc(Cl)c(Cl)c2)nc2ccccc21)c1ccccc1 | 31.9 µM
C=CCC(NCc1ccccc1)c1cn(C(=O)OCC)c2ccccc12 (stereo not given) | 33.7 µM
COc1ccc(C2=NC(CO)[C@H](c3ccccc3)O2)cc1OC (stereo not given in full) | > 100 µM
COc1ccccc1NC(=S)Nc1ccccn1 | > 100 µM
C=CCNC(=S)NC=C(C(N)=O)C(N)=O | > 100 µM

====

// TGI lookup, one value per entry
# System: OVCAR-4 ovarian
# TEST_SUMMARY: NCI tumour cell line growth inhibition, 48 h

COMPOUND_STRING | TGI
COC(=O)C1=CCC[C@H]2[C@@]1(COC(C)=O)CC[C@@H](C)[C@]2(C)CC(=O)c1ccoc1 | > 50 µM
CCOC(=O)c1sc2c(c1OC(=O)c1ccco1)c(=O)n(-c1ccccc1)c(=S)n2-c1ccccc1 | > 100 µM
Cc1cc(NS(=O)(=O)c2ccc(NC(=O)c3ccc4nc5ccccc5c(Nc5ccc(S(N)(=O)=O)cc5)c4c3)cc2)no1 | 89.9 µM
CSCCCNC(=O)c1csc(-c2csc(CCNC(=O)CNC(=O)OC(C)(C)C)n2)n1 | > 100 µM
O=C(CC(=O)n1nc(-c2ccccc2)c(N=Nc2ccc([N+](=O)[O-])cc2)c1-c1ccccc1)Nc1ccc(Cl)cc1 | > 100 µM
CC(=O)O[C@H]1[C@@H](N2CCCCC2)C[C@H]2[C@@H]3CC=C4C[C@@H](N5CCCC5)CC[C@]4(C)[C@H]3CC[C@@]21C | > 100 µM
CC1(C)COC(c2cccc(C(=O)c3ccccc3)c2)=N1 | > 100 µM
COc1cc2c(c(OC)c1OC)[C@@H]1CCCCC[C@@H]1CCC2=O | > 100 µM
